experiment: yeast display, Sf9 membrane polyspecificity reagent, FACS + sequencing; frameworks hold sequencing errors
METRIC NAME: polyreactivity (PSR sort gate)

1. QVQLVESGGGLVQAGGSLRLSCPASGSIIYTNDMGWYRQEPGKEREMVAAISYGGTTTYADSVKGRFTISRDNAKNTVYLQMNSLKPEDTAVYYCNADWLYYGYWGYGHIWYDFWGQGTQVTVSS ... low polyreactivity
2. QVQLVESGRGLVQAGGSLRISCAASGITFVFYAMGWYRQAPGKEIELVAAMSWSGGITYYADSVKGRFTISRDNSKNSVYLQMNSLKPEDTAVYYCAATKRQTKYYGGTTDSIRYYWGQGTQVTVSS ... low polyreactivity
3. QVQLVESGGGLVQAGGSLRLSCAASGSIFKWYTMGWYRQAPGKERELVAAITWGGGSTYYADSVKGRFTISRDNAKNTVYLQMNSLKPEDTAVYYCNAEYVVADYGYYTIEFDYWGQGTQVTVSS ... low polyreactivity
4. QVQLVESGGGLVQAGCSLRISCAASGSTFYPYAMGWYRQAPGKERELVAAISSGGSTYYADSVKGRFTISRDNAKNTVYLQMNSVKPEDTAVYYCAADFYYAYYWGQGTQVTVSS ... low polyreactivity
5. QVQLLESGGGLVQAGGSLRLSCAASGRTFTSNVMGWYRQAPGKERELVAAISSSGGRTYYADSVKGRFTISRDNAKNTVYLLMNSLKPEDTAVYSCAADGYPEYPRYGYWGQGTQVTVSS ... high polyreactivity

Given the sequence "QVQLVESGGGLVQAGGSLRLSCAASGGIITYYDMGWYSQAPGKDREFVAAINVSGTRTYYADSVKGRFTISRDNAKNTVYLEMNSLKPEDTAVYYGATRYRVGFFSWYDYWGQGTQVTVSS" , what is its reported polyreactivity (PSR sort gate)?
high polyreactivity

"QVQLVESGGGLVQAGGSLRLSCAASGFTFYIYAMGWYRQAPGKERELVASISARGGSTYYADSVKGRFTISRDNAKNTVYLQMNSLKPEDTAVYYCNALYNYAEIYGRGYWGQGTQVTVSS" ?
high polyreactivity

Okay, and "QVQLVESGGGLVQAGGSLRLSCAASGFIFYYNAMGWDRQAPGKERELVAAIDSGGRTNYADSVKGRFTISRDNAKNTVYLQMNSLKPEDTAVYYCATDPYQPYEGDYWGQGTQVTVSS" ?
low polyreactivity

Let us now turn to "QVQLVESGGGLVQAGGSLRLSCAASGITFTFYAMGWYRQAPGKERELVAAISRRGGSTYYADSVKGRFTISRDNAKNTVYLQMNSLKPEDTAVYYCAARGYRPMDYWGQGTQVTVSS"
high polyreactivity

Request: "QVQLVESGGGLVQAGGSLRLSCAASGYIFGRNARGWYRQAQGKERELVAVISSRGSRTYYADSVKGRYTISRDNAKNTVYLQMNSLKPEDTAVYYCNAVMWWDWEYDFYYWGQGNQVTVSS"
high polyreactivity

Item: "QVQLVESGGGLVQAGGSLRLSCAASGFTFNANAMGWYRQAPGKERELVAVNTRSGGRTYYADSVKGRFTISRDNAKNTVYLQMNSLKPEDTAVYYCAKEGPSRVYQGTDSASDYWGQGTQVTVSS"
high polyreactivity

====

test: yeast display, Sf9 membrane polyspecificity reagent, FACS + sequencing; frameworks hold sequencing errors
METRIC NAME: polyreactivity (PSR sort gate)

// below: answered sequences
1. QVQLVESGGGLVQAGGSLRLSCAASGTFFGYAMGWYRQAPGKERELVAAITSGGSTYYADSVKGRFTISRDNAKNTVYLQMNSLKPEVTAVYYCARVYSRWSYRYDYWGQGTQVTVSS ... low polyreactivity
2. QVQLVESGGRLVQAGGSLRLSCAASGFTYQGNAMGWYRQAPGKERVLVAAISRGGSTYYADSVKGRFTISRDNAKNTVYLQMNRLKPEDTAVYYGAAKPSVDLDYWGQGTQVTVSS ... high polyreactivity
3. QVQLVESGGGLVQAGGSLRLSCAASGRTFTSNAMGWYRQAPGKESELVAVITTSGDRTFYADSVKGRFTISRDNAKNTVYLQMNSLKPEDTAVYYCAADVRLTRGFDYWVQGTQVTVSS ... high polyreactivity
4. QVQVVESGGGLVQAGGSLRLTCAASGRTFINYAIGRYRQPAAKERELVAAITPGGRTNYADSVKGRFTNSRDNAKYTVYLQMNSVTPEDTAVYYCAADRYYWGRYTLNYWGQGTQVTVSS ... low polyreactivity
5. QVQLVESGGRLVQAGGSLRLSCAASGSIFRFNTMGWYRQAPGKERELVAVIRYRSGSTYYADTVKGRFTISRDNAKYTVYLQMNSLKPEDTAVYYCAAKRRSTYDYWGQGTQVTVSS ... high polyreactivity

Kindly consider the entry below.
Could you share which polyreactivity (PSR sort gate) value was measured for "QVQLVESGGGLVQAGGSLRLSCAASGSKFWGYAMGWYRKAAGKERELVAAITDSGGRTYYADSVKGRFTISRDNEKNTVYLQMNSLKPEDTAVYYCAADYYSQYYYYAVPDRDYWGQGTQVTVSS" ?
low polyreactivity

====

assay: yeast display, Sf9 membrane polyspecificity reagent, FACS + sequencing; frameworks hold sequencing errors
METRIC NAME: polyreactivity (PSR sort gate)

Consider the worked cases shown below.
1) QVQLVESGGGLVQAGGSHRLSSAASARIFAVNVMGWYRQAPGKERELVAAISWSDDIKYYADSVKGRFTISRDNAKNTVYLQMNSLKPEDTAVYYCAADFLPLHADDDDEDYWGQGTQVTVST ... high polyreactivity
2) QVQLLESGGGLVQAGGSLRLSCAASGFTFQYYAMGWYRQAPGKERELVAAITRGDSTNYADSVKGRFTISRDNAKNTVYLQMNSLKPEDTAVYYCAAGSAPSYWGGWYYERDYWGQGTQVTVSS ... low polyreactivity
3) QVQLVESGGGLVQAGGSLRLSCAGSGSTFRSNAMGWYRQAPGKERELVAAISQRGGSTYYADSVKGRFTISRDNAKNTVYLQMNSLKPEDTAVYYCAARLYRGWRPFYYWGQGTQVSVSS ... high polyreactivity
4) QVQLVESAVGLVQAGVSLRLSSAASGFIYYAYALGWYRQAPGKERELVAGISDSGASTYADSVKGRFTISRDNAKNTVYLQMNSLKPEDTAVYYCATTGYLSTKDYDEYGYWGQGTQVTVSS ... low polyreactivity

Consider the record given below.
For the sequence shown here, "QVQLVESGGGLVQAGGSLRLSCAASGRIFDYYAMAWYRQAPGKERELVSAISSNGVSTYYADSVKGRFTISRDNPKNTVYLQMNSLKPEDTAVYYCAADPTRHSSFPQYDSWGQGTQVTVSS" , give the reported polyreactivity (PSR sort gate).
low polyreactivity

====

experiment: yeast display, Sf9 membrane polyspecificity reagent, FACS + sequencing; frameworks hold sequencing errors
METRIC NAME: polyreactivity (PSR sort gate)

1. QVQLVESGGGLVQAGGSLRLSCAASGFTFFWYAMGWSRQAPGKERELVAGITYRGGSTYYADSVKGRFTISRDNAKNTVYLQMNSLKPEDTAVYYCNADVVTKHISAWWDRYYRRYYYWGQGTQVTVSS ... low polyreactivity
2. QVQLVESGGGLVQAGGSLRLSCAASGSTFNPYAMGWYRQAPGKERELVAAITWSSDDTYYADSVKGRFTISRDNAKNTVYLQMNSLKPEDTAVYYCAATTVTQWYTITVAYGYWGQGTQVTVSS ... low polyreactivity

====

experiment: yeast display, Sf9 membrane polyspecificity reagent, FACS + sequencing; frameworks hold sequencing errors
METRIC NAME: polyreactivity (PSR sort gate)

1) QVQPVESGGGLVQAGGSLRLSCAASGIIFPYYAMGWYRQEPGKERELVAAISTGGSTYYADSVKGRFTISRDNAKNTVYLQMNSLKPEDTAVYCCAAATSYGKSEYDYWGQGTQVTVSS ... high polyreactivity
2) QVQLQVSGGDLLQAGGSLRLSCAASGTIYGHTSMGWYRQAPGKEREFVAAITDGGNTNYADSVKGRFTISRDNAINTVYLQMISLKPEDTAVYYCEVLFSDVAYYAYWGQGTQVTVSS ... low polyreactivity
3) QVQLVESGGGLVQAGGSLRLSCAASGSTFENNVMAWYRQAPGKERELVATITWGDGSTSYADSVKGRFTISRDNAKNTVYLQMNSLKPEDTAVYYCAADSAENVYRGYYWGQGTQVTVSS ... low polyreactivity
4) QVQLVESGGGLVQAGGSLRLSCAASGYTFYIYAMGWYIQAPGKERELVAAISWTDGSTYYADSVKGRFTISRDNAMNSVYLQMNSLKPEHTAVYYCAKTSLYAGAKEYDYWGQGTQVTVSS ... low polyreactivity

Now consider the entry below.
Entry "QVQLVESGGGLVQAGGSLRLSSPASGITFDKYAMGWYRQAPGKERELVAAISRSAGSTYYADSVKGRFTISRDNEKYSVYLQMKSLKPEDCAVYLCAGDPLIYDDYYWGQGTNVTVSS" : reported polyreactivity (PSR sort gate) = ?
high polyreactivity
